# System: EKVX NSCLC
# ASSAY OVERVIEW: NCI tumour cell line growth inhibition, 48 h
Measured TGI of individual entries

ITEM SMILES	RESULT
c1ccc2c(c1)N=c1ccccc1=P21c2ccccc2Nc2ccccc21	> 31.1 µM
COc1ccccc1NC(=O)CC(=O)NNCC(=O)Nc1nc(-c2ccccc2)cs1	> 100 µM
Nc1c(Cl)ncnc1NCC1(CO)CCC1	> 100 µM
Cn1c(=O)c2[nH]c(Nc3ccccc3)nc2n(C)c1=O	> 10 µM
O=C(CCCCCn1c2ccccc2c2c3c(c4c5ccccc5[nH]c4c21)C(=O)N(O)C3=O)N1CCOCC1	43.3 µM

Here is another compound to look at.
If you can, please state the reported TGI value of CN(CCN(C)Cc1ccc(Cl)c(Cl)c1)CCN1CCCC1 .
> 100 µM
